Reference for the values: the supplement of paper PMC8967900

Tested on: 697
TEST_METHOD_NOTES: selective drug sensitivity score (sDSS, relative to normal bone marrow) (sDSS (score)); higher = more potent and effective on the cell line relative to normal bone marrow cells;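 note: ALL cell lines in 384-well plates, five doses spanning 10,000-fold, each plate scaled between vehicle and 100 µmol/L benzalkonium chloride controls, sDSS an adapted area-under-curve metric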
COND: 72 h
ENDPOINT_LABEL: selective drug sensitivity score
// no unit, no text: just the number

The reported value for CC[C@H](C)C(=O)O[C@H]1C[C@@H](C)C=C2C=C[C@H](C)[C@H](CC[C@@H]3C[C@@H](O)CC(=O)O3)[C@H]21 [Lovastatin] (top concentration 10000 nM) in terms of selective drug sensitivity score is 0.1

// recorded selective drug sensitivity score for O=C(NC[C@H](O)CN1CCc2ccccc2C1)c1cc(NC2COC2)ncn1 (top concentration 10000 nM) : 0.84

Recorded result, O=C(CCCCCCC(=O)Nc1ccccc1)NO [Vorinostat] (top concentration 10000 nM) , selective drug sensitivity score: 10.1

The compound CNC(=O)c1ccc(N2C(=S)N(c3ccc(C#N)c(C(F)(F)F)c3)C(=O)C2(C)C)cc1F [Enzalutamide] (top concentration 10000 nM) showed selective drug sensitivity score equal to 1.48

For reference, reported selective drug sensitivity score for CCOC(=O)CCNc1cc(N2CCc3ccccc3CC2)nc(-c2ccccn2)n1 [GSK-J4] (top concentration 100000 nM) stands at -8.08

selective drug sensitivity score recorded for this compound, CN1CCN(c2ccc(C(=O)Nc3n[nH]c4ccc(Cc5cc(F)cc(F)c5)cc34)c(NC3CCOCC3)c2)CC1 [Entrectinib] (top concentration 1000 nM) , is -1.2

###

Test system: TANOUE
TEST_METHOD_NOTES: selective drug sensitivity score (sDSS, relative to normal bone marrow) (sDSS (score)); higher = more potent and effective on the cell line relative to normal bone marrow cells
COND: 72 h
ENDPOINT_LABEL: selective drug sensitivity score

Result for COc1ncc(-c2ccc3nccc(-c4ccnnc4)c3c2)cc1NS(=O)(=O)c1ccc(F)cc1F [Omipalisib] (top concentration 1000 nM) , tested on TANOUE, selective drug sensitivity score: -4

Entry CCS(=O)(=O)c1cccc(-c2cc(C(=O)NC3CCN(C)CC3)c(C)c3[nH]c4ncc(C)cc4c23)c1 [TAK-901] (top concentration 1000 nM) under TANOUE had selective drug sensitivity score of -4.74

Summary: CN(C)Cc1c(C(=O)NCCOc2ccc(C(=O)NO)cc2)oc2ccccc12 [Abexinostat] (top concentration 10000 nM) , TANOUE, selective drug sensitivity score = -7.54

TANOUE selective drug sensitivity score of Cc1ccc(C(=O)Nc2ccc(CN3CCN(C)CC3)c(C(F)(F)F)c2)cc1C#Cc1cnc2cccnn12 [Ponatinib] (top concentration 1000 nM) is -3.78

Noted selective drug sensitivity score for C[C@H](Nc1ncnc2[nH]cnc12)c1cc2ccc(F)cc2nc1-c1ccccn1 [AMG319] (top concentration 1000 nM) , tested on TANOUE: -0.12

Summary line: CNS(=O)(=O)Nc1nccc(Cc2c(C)c3ccc(Oc4ncccn4)cc3oc2=O)c1F (top concentration 1000 nM) , TANOUE, reported selective drug sensitivity score = -1.18

###

System: HAL-01
TEST_METHOD_NOTES: selective drug sensitivity score (sDSS, relative to normal bone marrow) (sDSS (score)); higher = more potent and effective on the cell line relative to normal bone marrow cells
COND: 72 h
Kindly return condition met if reported selective drug sensitivity score is no lower than 2; return condition not met if it is lower.

State whether the measured selective drug sensitivity score reaches 2, counting equality as reaching it, for CC/C(=C(\c1ccc(O)cc1)c1ccc(OCCN(C)C)cc1)c1ccccc1 [4-hydroxytamoxifen] (top concentration 10000 nM)
condition not met

Hi, just wondering whether Cc1ccc(NC(=O)c2ccc(CN3CCN(C)CC3)cc2)cc1Nc1nc(-c2cccnc2)cs1 [Masitinib] (top concentration 10000 nM) shows selective drug sensitivity score of 2 or higher.
condition not met

Does CCNC(=O)c1noc(-c2cc(C(C)C)c(O)cc2O)c1-c1ccc(CN2CCOCC2)cc1 [Luminespib] (top concentration 1000 nM) have a reported selective drug sensitivity score of at least 2?
condition not met

Decide: is the reported value of selective drug sensitivity score for COc1ncc(-c2ccc3nccc(-c4ccnnc4)c3c2)cc1NS(=O)(=O)c1ccc(F)cc1F [Omipalisib] (top concentration 1000 nM) equal to or greater than 2?
condition met

Check if selective drug sensitivity score >= 2 (inclusive). Item: Nc1nc2[nH]cnc2c(=S)[nH]1 [Thioguanine] (top concentration 10000 nM)
condition met

Assess whether reported selective drug sensitivity score for COc1ccc(-c2nc(N3CCOCC3)c3sc(CN(C)c4ncc(C(=O)NO)cn4)cc3n2)cn1 [Fimepinostat (CUDC-907)] (top concentration 10000 nM) sits at 2 or higher.
condition not met

Check if selective drug sensitivity score >= 2 (inclusive). Item: CO[C@H]1CC[C@H](N2C(=O)CNc3ncc(-c4ccc(C(C)(C)O)nc4)nc32)CC1 [CC-223] (top concentration 10000 nM)
condition met

Is selective drug sensitivity score for O=C(Nc1ccc(OC(F)(F)Cl)cc1)c1cnc(N2CC[C@@H](O)C2)c(-c2cc[nH]n2)c1 [Asciminib] (top concentration 1000 nM) at or above 2?
condition not met

Given the entry CN1CCN(c2cc(C(=O)Nc3ccc4c(c3)-c3c(c(C(N)=O)nn3-c3ccc(F)cc3)CC4)c(Cl)cn2)CC1 [PHA-408] (top concentration 10000 nM) , answer whether its selective drug sensitivity score meets or surpasses 2.
condition met

Say whether CO[C@@H](C(=O)N1Cc2[nH]nc(NC(=O)c3ccc(N4CCN(C)CC4)cc3)c2C1)c1ccccc1 [Danusertib] (top concentration 10000 nM) shows selective drug sensitivity score of 2 or more.
condition not met

Assess whether reported selective drug sensitivity score for CN(C)Cc1ccc(S(=O)(=O)n2ccc(/C=C/C(=O)NO)c2)cc1 [Resminostat] (top concentration 10000 nM) sits at 2 or higher.
condition not met

Say whether O=C(NC[C@H](O)CN1CCc2ccccc2C1)c1cc(NC2COC2)ncn1 (top concentration 10000 nM) shows selective drug sensitivity score of 2 or more.
condition not met

Does the compound CNC(=O)c1cc(COc2nnc(Nc3ccc(Cl)cc3)c3ccoc23)ccn1 [Telatinib] (top concentration 10000 nM) have recorded selective drug sensitivity score that is 2 or more?
condition not met

Evaluate C1=N/C2=N/c3ccc(OCCN4CCCC4)c(c3)COC/C=C/COCc3cccc(c3)C(=C1)N2 [Pacritinib] (top concentration 10000 nM) : selective drug sensitivity score at minimum 2?
condition not met

Textbook exercise: given the entry COc1cc(OC)c(/C=C/S(=O)(=O)Cc2ccc(OC)c(NCC(=O)O)c2)c(OC)c1 [Rigosertib] (top concentration 10000 nM) , state whether its selective drug sensitivity score is greater than or equal to 2.
condition met

Please tell me: is the compound CN(C)C(=N)NC(=N)N [Metformin] (top concentration 100000 nM) at or over 2 in terms of selective drug sensitivity score?
condition not met

Evaluate CCOC(=O)CCNc1cc(N2CCc3ccccc3CC2)nc(-c2ccccn2)n1 [GSK-J4] (top concentration 100000 nM) : selective drug sensitivity score at minimum 2?
condition met

Hello, I need to know if CC(C)NC[C@@H](C(=O)N1CCN(c2ncnc3c2[C@H](C)C[C@H]3O)CC1)c1ccc(Cl)cc1 [Ipatasertib] (top concentration 10000 nM) has measured selective drug sensitivity score not below 2. Thanks!
condition not met

Confirm if selective drug sensitivity score reported for the compound CCNCCS(=O)(=O)NC[C@@]1(c2ccccc2)SC(NC(=O)C(C)(C)C)=NN1C(=O)C(C)(C)C [Litronesib] (top concentration 1000 nM) is 2 or above.
condition not met

Is selective drug sensitivity score for COc1cccc2c1c(O)c(C(=O)N(C)c1ccc(C(F)(F)F)cc1)c(=O)n2C [Tasquinimod] (top concentration 10000 nM) at or above 2?
condition not met

Record O=C(c1ccc(OCCN2CCCCC2)cc1)c1c(-c2ccc(O)cc2)sc2cc(O)ccc12 [Raloxifene] (top concentration 10000 nM) ; criterion: selective drug sensitivity score no lower than 2. Met?
condition not met

Test whether the compound CN1CCN(c2ccc(C(=O)Nc3n[nH]c4ccc(Cc5cc(F)cc(F)c5)cc34)c(NC3CCOCC3)c2)CC1 [Entrectinib] (top concentration 1000 nM) records selective drug sensitivity score of 2 or higher.
condition not met

Say whether COC(=O)c1ccc2c(c1)[nH]c1ncnc(NCCCN3CCCCC3)c12 [UM729] (top concentration 10000 nM) shows selective drug sensitivity score of 2 or more.
condition not met

Does the reported selective drug sensitivity score for CNS(=O)(=O)Nc1nccc(Cc2c(C)c3ccc(Oc4ncccn4)cc3oc2=O)c1F (top concentration 1000 nM) fall at or above the 2 mark?
condition not met
